Each recorded value in this set is attributed to ChEMBL document CHEMBL1150198.

Test system: Calf thymus DNA
MEASUREMENT_PROTOCOL: Binding affinity to calf thymus DNA assessed as reduction in DNA peak by pre-incubation method
Assay type: nucleic-acid assay
Parameters: concentration or dose not given beside the values
RECORDED_CONDITIONS: Bos taurus
# Activity per record follows
Numbers only here, please. The scale is %.

SMILES_DATA: COC(=O)CC1(O)C=CC(=O)C=C1
UNIT_ABBREV: %
REPORTED_RESULT: 30

### Prompt Identify measured Activity associated with COc1cc2c(ccc3c4cc(OC)c(OC)cc4c[n+](C)c23)cc1O
### Response 100

---

Tested on: Calf thymus DNA
MEASUREMENT_PROTOCOL: Binding affinity to calf thymus DNA assessed as reduction in DNA peak by pre-incubation method
Assay type: nucleic-acid assay
Set-up: concentration or dose not given beside the values
RECORDED_CONDITIONS: Bos taurus
MEASURED_METRIC: Activity

SMILES_DATA: COc1cc2c(c3c1c(=O)c1ccccc1n3C)C=CC(C)(C)O2
Activity: < 30%

### Prompt Consider the compound COc1cc2c(c(OC)c1OC)-c1ccc(OC)c(=O)cc1[C@@H](NC(C)=O)CC2 tested on Calf thymus DNA; state its Activity.
### Response < 30%

### Prompt Consider the compound Cc1c2ccncc2c(C)c2c1[nH]c1ccccc12 tested on Calf thymus DNA; state its Activity.
### Response > 70%
